Where these numbers come from: the supplement of paper PMC11061612

tested on: SNU-398 (Hepatocellular Carcinoma); experiment: combination Emax (second highest fraction inhibited in the dose matrix, 72 h); higher = more inhibition; extreme values may be limits of the assay

[
  {
    "molecule": "C[C@@H](c1ccc2nccn2c1)n1nnc2ncc(-c3cnn(C)c3)nc21 [Savolitinib] + CC1(C)CCC(CN2CCN(c3ccc(C(=O)NS(=O)(=O)c4ccc(NCC5CCOCC5)c([N+](=O)[O-])c4)c(Oc4cnc5[nH]ccc5c4)c3)CC2)=C(c2ccc(Cl)cc2)C1 [Venetoclax] (first compound max 1 µM, 7x7, partner max 1 µM)",
    "combination Emax": 0.127
  },
  {
    "molecule": "Cc1c2c(nn1C)CSCc1cc(n(C)n1)CSc1cc(c3ccccc3c1)OCCCc1c(C(=O)O)n(C)c3c-2c(Cl)ccc13 [AZD5991] + Cn1cnc2c(F)c(Nc3ccc(Br)cc3Cl)c(C(=O)NOCCO)cc21 [Selumetinib] (first compound max 1 µM, 7x7, partner max 3 µM)",
    "combination Emax": 1
  },
  {
    "molecule": "Cc1cc2ncnn2cc1Nc1ncc2c(n1)n(C1CCOCC1)c(=O)n2C [AZD7648] + C[C@@H]1COCCN1C2=NC(=NC(=C2)C3(CC3)[S@](=N)(=O)C)C4=C5C=CNC5=NC=C4 [AZD6738] (first compound max 10 µM, 7x7, partner max 10 µM)",
    "combination Emax": 0.46
  },
  {
    "molecule": "Cc1nc(Nc2ncc(C(=O)Nc3c(C)cccc3Cl)s2)cc(N2CCN(CCO)CC2)n1 [Dasatinib] + CC(=O)Nc1cccc(-n2c(=O)n(C3CC3)c(=O)c3c(Nc4ccc(I)cc4F)n(C)c(=O)c(C)c32)c1 [Trametinib] (first compound max 2 µM, 7x7, partner max 1 µM)",
    "combination Emax": 0.501
  }
]

====

tested on: VMRC-RCZ (Kidney Carcinoma); test: combination Emax (second highest fraction inhibited in the dose matrix, 72 h); higher = more inhibition; extreme values may be limits of the assay

[
  {
    "compound": "CN(C)CCCOc1ccc(-c2ccc3ncc4c(c3c2)n(C2CCOCC2)c(=O)n4C)cn1 [AZD0156] + C[C@@H]1COCCN1C2=NC(=NC(=C2)C3(CC3)[S@](=N)(=O)C)C4=C5C=CNC5=NC=C4 [AZD6738] (first compound max 1 µM, 7x7, partner max 10 µM)",
    "combination Emax": 0.232
  },
  {
    "compound": "COc1nnc2ccc(N3CCC(c4ccc(OCCN5CCN(C)C(=O)[C@H]5C)cc4)CC3)nn12 [AZD5153] + CC1(C)CCC(CN2CCN(c3ccc(C(=O)NS(=O)(=O)c4ccc(NCC5CCOCC5)c([N+](=O)[O-])c4)c(Oc4cnc5[nH]ccc5c4)c3)CC2)=C(c2ccc(Cl)cc2)C1 [Venetoclax] (first compound max 1 µM, 7x7, partner max 1 µM)",
    "combination Emax": 0.258
  },
  {
    "compound": "COc1nnc2ccc(N3CCC(c4ccc(OCCN5CCN(C)C(=O)[C@H]5C)cc4)CC3)nn12 [AZD5153] + C=CCn1c(=O)c2cnc(Nc3ccc(N4CCN(C)CC4)cc3)nc2n1-c1cccc(C(C)(C)O)n1 [AZD1775] (first compound max 1 µM, partner max 1 µM)",
    "combination Emax": 0.489
  },
  {
    "compound": "CS(=O)(=O)CCNCc1ccc(-c2ccc3ncnc(Nc4ccc(OCc5cccc(F)c5)c(Cl)c4)c3c2)o1 [Lapatinib] + C[C@@H](Oc1cc(-c2cnn(C3CCNCC3)c2)cnc1N)c1c(Cl)ccc(F)c1Cl [Crizotinib] (first compound max 10 µM, 7x7, partner max 10 µM)",
    "combination Emax": 0.365
  },
  {
    "compound": "CN(CCO)CC[C@H](CSc1ccccc1)Nc1ccc(S(=O)(=O)NC(=O)c2ccc(N3CCC([C@@H](O)c4ccccc4-c4ccc(Cl)cc4)CC3)cc2)cc1S(=O)(=O)C(F)(F)F [AZD4320] + C1CN(CCC1(C(=O)N[C@@H](CCO)C2=CC=C(C=C2)Cl)N)C3=NC=NC4=C3C=CN4 [Capivasertib] (first compound max 1 µM, 7x7, partner max 3 µM)",
    "combination Emax": 0.37
  },
  {
    "compound": "CC1(C)CCC(CN2CCN(c3ccc(C(=O)NS(=O)(=O)c4ccc(NCC5CCOCC5)c([N+](=O)[O-])c4)c(Oc4cnc5[nH]ccc5c4)c3)CC2)=C(c2ccc(Cl)cc2)C1 [Venetoclax] + CCN(CCO)CCCOc1ccc2c(Nc3cc(CC(=O)Nc4cccc(F)c4)[nH]n3)ncnc2c1 [AZD2811] (first compound max 1 µM, 7x7, partner max 1 µM)",
    "combination Emax": 0.178
  }
]
